Measured Target: Glycogen synthase kinase-3 alpha (Homo sapiens)
Assay Comment: concentration-response blocking of human GSK3A – biochemical, luminescence, cell-free homogeneous, retest, dose response (AID 463203)
Experimental Setup: GSK-3 alpha enzyme, ADP-Glo luminescence, 60 min
Activity calls are given as the source filed them.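 Rule for the calls: active = more than half of replicate measurements showing over 20% loss of kinase signal relative to plate controls; inconclusive = some but at most half of replicates over 20% loss; inactive = no replicate over 20% signal loss.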
Write down one outcome, taken from active, inactive

Outcome? COc1ccc2nc(NC(=O)CSc3nc4ccccc4o3)sc2c1
active

Record lookup: outcome of this test for CCN(CC)CCCNc1ncnc2scc(-c3ccc(F)cc3)c12 ?
inactive

// return assay outcome for S=C(NCc1ccccc1)Nc1cccc2cnccc12
inactive

How did this test come out for CC(=O)Oc1cc(O)c2c(=O)c(OC(C)=O)c(-c3ccc(OC(C)=O)c(OC(C)=O)c3)oc2c1 ?
active

For CCN1C(=O)/C(=C2\SC(=S)N(c3c(C)n(C)n(-c4ccccc4)c3=O)C2=O)c2ccccc21 , what call appears in the results of this test?
inactive

Which outcome did this test record for the compound Cc1cccc(C)c1OC(=O)C(c1ccccc1)c1ccccc1 ?
inactive

For this compound, state the assay outcome: CCCc1cc(C(N)=O)c(NC(C)=O)s1
active

# outcome recorded in this test, key = C[C@H](CO)N1C[C@H](C)[C@@H](CN(C)S(=O)(=O)c2ccccc2)Oc2c(NC(=O)c3ccncc3)cccc2C1=O
inactive

Test call, this compound: COc1ccc(CCn2cnc(=O)c(C#N)c2C)cc1OC
inactive

Recorded test call requested for N/C(=N\OC(=O)c1ccc(Br)cc1)c1cccc([N+](=O)[O-])c1
inactive

What outcome does the record of this test show for CCOC(=O)c1cc(CC)sc1NC(=O)CN1CCN(C(=O)c2ccco2)CC1 ?
inactive

# fetch the recorded call for O=C(c1ccc(Cl)cc1)c1cnc(Nc2ccccc2)s1 here
inactive

Hi, sorry to bother you, what did the test record for COc1ccc(N2CCOCC2)c(NC(=O)c2ccc(Br)o2)c1 ?
active

What did the test return for O=C(NCCCN1CCN(CCCNC(=O)c2ccc3c(c2)OCO3)CC1)c1ccc2c(c1)OCO2 ?
active

Can you look up the reported call for CCOC(=O)c1sc(NC(=O)CSc2ncn[nH]2)c(C#N)c1C for me?
inactive

Can you look up the reported call for COc1cc2c(cc1OC)-c1nnc(C)n1C1(CCCC1)C2 for me?
active

Hi, sorry to bother you, what did the test record for CC(C)(C)OC(=O)N1CCN(C(=O)c2[nH]cnc2C(=O)Nc2ccon2)CC1 ?
inactive

Hi, do you know how Fc1ccc(C2=Nn3c(nnc3-c3ccco3)SC2)cc1 came out in this test?
inactive

Test call, this compound: CCOC(=O)c1c(NC(=S)N2CCOCC2)sc2c1CCN(C(=O)OCC)C2
inactive

Kindly provide the recorded test outcome for the following compound: O=C(Nc1ncc([N+](=O)[O-])s1)c1ccc2c(c1)OCO2
inactive

In this assay, the call recorded for Cc1cc2nc(-c3cccnc3SCC(=O)NCc3ccco3)[nH]c2cc1C was what?
inactive

How did this test come out for Cc1sc2ncnc(SCC(=O)NCC3CCCO3)c2c1C (configuration not stated) ?
inactive
